assay-system: VEGF receptor (KDR) (Homo sapiens, UniProt P35968)
Construct: expressed in transfected cells
Sequence (P35968 20-1356): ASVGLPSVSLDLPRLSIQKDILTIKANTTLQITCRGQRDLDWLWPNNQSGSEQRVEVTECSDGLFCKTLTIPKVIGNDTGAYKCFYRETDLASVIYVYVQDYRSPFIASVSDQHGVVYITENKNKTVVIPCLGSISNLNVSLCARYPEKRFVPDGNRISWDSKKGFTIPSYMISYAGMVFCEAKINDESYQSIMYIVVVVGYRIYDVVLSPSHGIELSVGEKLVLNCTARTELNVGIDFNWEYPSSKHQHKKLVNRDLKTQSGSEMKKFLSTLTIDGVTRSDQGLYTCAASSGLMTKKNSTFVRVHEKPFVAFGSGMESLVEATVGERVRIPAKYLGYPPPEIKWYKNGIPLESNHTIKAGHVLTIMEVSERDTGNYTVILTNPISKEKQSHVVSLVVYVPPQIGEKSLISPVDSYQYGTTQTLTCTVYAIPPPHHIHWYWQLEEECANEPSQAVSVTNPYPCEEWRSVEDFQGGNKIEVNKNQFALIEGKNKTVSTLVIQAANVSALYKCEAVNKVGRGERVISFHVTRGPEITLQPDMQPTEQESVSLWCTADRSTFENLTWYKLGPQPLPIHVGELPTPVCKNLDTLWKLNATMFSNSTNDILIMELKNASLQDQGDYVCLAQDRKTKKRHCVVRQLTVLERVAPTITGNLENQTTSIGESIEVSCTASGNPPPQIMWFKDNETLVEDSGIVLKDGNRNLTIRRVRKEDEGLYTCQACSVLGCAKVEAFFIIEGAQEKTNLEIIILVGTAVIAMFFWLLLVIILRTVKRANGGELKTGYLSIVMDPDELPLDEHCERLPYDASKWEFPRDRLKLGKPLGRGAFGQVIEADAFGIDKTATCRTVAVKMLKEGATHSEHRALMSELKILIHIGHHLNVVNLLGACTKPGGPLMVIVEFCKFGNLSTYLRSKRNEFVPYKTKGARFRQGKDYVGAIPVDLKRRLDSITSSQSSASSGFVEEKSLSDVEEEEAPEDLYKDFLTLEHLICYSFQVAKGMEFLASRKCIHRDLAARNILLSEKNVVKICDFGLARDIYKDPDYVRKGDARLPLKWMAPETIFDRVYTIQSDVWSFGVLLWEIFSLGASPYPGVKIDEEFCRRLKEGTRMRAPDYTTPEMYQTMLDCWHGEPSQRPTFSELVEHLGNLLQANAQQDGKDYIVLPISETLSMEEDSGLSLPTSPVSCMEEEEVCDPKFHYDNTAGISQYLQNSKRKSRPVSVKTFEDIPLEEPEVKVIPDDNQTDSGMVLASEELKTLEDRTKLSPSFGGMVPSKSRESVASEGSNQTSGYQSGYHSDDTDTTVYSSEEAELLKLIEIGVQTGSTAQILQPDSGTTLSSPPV
test-details: Inhibition of VEGF-induced KDR-receptor autophosphorylation in transfected CHO cells
Format: cell-based
measurement-name: KDR (% inh) (%)

[a] CCN(CC)CCCNC(=O)c1ccc(-c2cc3c(N(C)C)ncnc3[nH]2)cc1
[b] CN(C)c1ncnc2[nH]c(-c3ccc(Cc4ccc[nH]4)cc3)cc12
[ask] Form field 'greater KDR (% inh)' accepts a or b ; which applies? Your choice should be expressed through its label.
[reply] a
(a: 79%, b: 50%)

====

assay-system: EGF-R (HER-1) (Homo sapiens, UniProt P00533)
Sequence (P00533 25-1210): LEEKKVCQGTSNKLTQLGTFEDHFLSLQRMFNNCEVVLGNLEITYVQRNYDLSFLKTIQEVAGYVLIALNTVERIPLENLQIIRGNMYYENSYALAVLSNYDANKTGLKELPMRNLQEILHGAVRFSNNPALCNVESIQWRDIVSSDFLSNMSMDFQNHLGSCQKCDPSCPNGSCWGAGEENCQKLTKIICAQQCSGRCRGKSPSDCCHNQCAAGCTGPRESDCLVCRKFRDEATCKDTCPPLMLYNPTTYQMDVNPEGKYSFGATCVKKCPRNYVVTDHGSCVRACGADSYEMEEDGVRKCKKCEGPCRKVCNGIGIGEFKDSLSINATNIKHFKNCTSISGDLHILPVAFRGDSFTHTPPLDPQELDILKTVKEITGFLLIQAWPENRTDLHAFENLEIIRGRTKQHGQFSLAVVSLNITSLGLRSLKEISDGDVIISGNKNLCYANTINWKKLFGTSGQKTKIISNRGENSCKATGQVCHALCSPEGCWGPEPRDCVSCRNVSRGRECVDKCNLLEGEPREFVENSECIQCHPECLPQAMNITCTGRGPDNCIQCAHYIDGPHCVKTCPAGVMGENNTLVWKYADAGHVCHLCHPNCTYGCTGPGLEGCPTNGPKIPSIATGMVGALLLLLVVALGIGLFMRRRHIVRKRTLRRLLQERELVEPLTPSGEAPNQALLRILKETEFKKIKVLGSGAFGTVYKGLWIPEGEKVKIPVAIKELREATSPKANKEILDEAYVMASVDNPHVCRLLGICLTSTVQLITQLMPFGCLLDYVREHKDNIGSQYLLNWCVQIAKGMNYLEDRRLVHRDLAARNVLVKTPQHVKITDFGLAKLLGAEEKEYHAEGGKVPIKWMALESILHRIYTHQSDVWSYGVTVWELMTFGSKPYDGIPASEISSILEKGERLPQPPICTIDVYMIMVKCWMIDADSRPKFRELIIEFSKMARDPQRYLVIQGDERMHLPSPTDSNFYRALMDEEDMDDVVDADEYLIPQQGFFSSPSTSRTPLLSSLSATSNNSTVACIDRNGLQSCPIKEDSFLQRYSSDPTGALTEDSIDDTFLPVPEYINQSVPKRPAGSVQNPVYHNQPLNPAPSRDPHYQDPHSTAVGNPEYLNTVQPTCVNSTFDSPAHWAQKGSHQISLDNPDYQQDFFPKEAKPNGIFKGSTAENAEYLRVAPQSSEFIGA
test-details: Inhibition of the tyrosine kinase activity of EGF-R (HER-1)
Assay type: biochemical
Design: dose or concentration left out as unconfirmed
measurement-name: HER-1/ %-inh. [%] (%)

Worked cases, HER-1/ %-inh. [%] given:
CNc1ncnc2[nH]c(-c3ccc(CN4CCN(C)CC4)cc3)cc12 ... 94
CCN(CC)CCCNC(=O)c1ccc(-c2cc3c(N(C)C)ncnc3[nH]2)cc1 ... 58

[A] CN(C)c1ncnc2[nH]c(-c3ccc(Cn4cnnn4)cc3)cc12
[B] CN(C)c1ncnc2[nH]c(-c3ccc(C(C)(C)O)cc3)cc12
[ask] Sort A and B by HER-1/ %-inh. [%] descending and give the first. Which one? Tell me its label.
[reply] A
